- System: MCF-7
- run_description: Crystal violet (CV) cell viability assay, IC50 determination
- Assay type: cell-based
- condition_label: Homo sapiens, MCF7, 72 h treatment, mean ± SD
measured_quantity: pIC50
Hey, just a heads up that pIC50 is the negative log base 10 of the concentration in molar.

Would you kindly share the measured pIC50 for O=c1[nH]c(Nc2ccc(Cc3ccc([N+](=O)[O-])cc3[N+](=O)[O-])cc2)nc2ccccc12 [Compound 24] ? 4.99

Would you kindly share the measured pIC50 for O=c1[nH]c(Nc2ccccc2)nc2ccc([N+](=O)[O-])cc12 [Compound 47] ? 5.20

Would you kindly share the measured pIC50 for O=c1[nH]c(Nc2ccc(Cl)cc2)nc2ccccc12 [Compound 22] ? 5.00

Would you kindly share the measured pIC50 for O=c1[nH]c(Nc2ccc([N+](=O)[O-])cc2)nc2ccccc12 [Compound 19, 4′-nitro-9-aza-glycophymine] ? 5.26

Would you kindly share the measured pIC50 for O=c1[nH]c(Nc2ccccc2)nc2cc([N+](=O)[O-])ccc12 [Compound 46] ? 5.24

Source of measurements: paper PMC11568214
